Measured On: UniProtKB P37840
Procedure Summary: Inhibition of recombinant alpha-synuclein (unknown origin) aggregation expressed in Escherichia coli BL21 (DE3) cells assessed as apparent elongation rate constant at 1:1 compound-protein molar ratio measured for every 30 mins in presence of ThT by spectrofluorometry (reference value: 108.7 +/- 1.8 10^-3/hr)
Endpoint Label: Kapp

Use these answered entries as a reference point.
*Q* // returns reported Kapp for input `CC(=O)Nc1ccc(S(=O)(=O)N2CCN(C(=O)CSc3nnc(-c4ccccc4)c(-c4ccccc4)n3)CC2)cc1`
*A* 86.6 10^-3/hr

*Q* // returns reported Kapp for input `Cc1ccc(S(=O)(=O)N2CCN(C(=O)CSc3nnc(-c4ccccc4)c(-c4ccccc4)n3)CC2)cc1`
*A* 118 10^-3/hr

---
*Q* // returns reported Kapp for input `O=C(CSc1nnc(-c2ccccc2)c(-c2ccccc2)n1)N1CCN(S(=O)(=O)c2ccc(Cl)cc2Cl)CC1`
*A* 122 10^-3/hr

*Q* // returns reported Kapp for input `O=C(CSc1nnc(-c2ccccc2)c(-c2ccccc2)n1)N1CCN(S(=O)(=O)c2ccc3ccccc3c2)CC1`
*A* 116 10^-3/hr

*Q* // returns reported Kapp for input `CC(=O)Nc1ccc(S(=O)(=O)N2CCN(C(=O)CSc3nnc(-c4ccccc4)c(-c4ccccc4)n3)CC2)cc1F`
*A* 121 10^-3/hr

*Q* // returns reported Kapp for input `O=C(CSc1nnc(-c2ccccc2)c(-c2ccccc2)n1)N1CCN(c2ccnc3cc(Cl)ccc23)CC1`
*A* 128 10^-3/hr

*Q* // returns reported Kapp for input `O=C(CSc1nnc(-c2ccccc2)c(-c2ccccc2)n1)N1CCN(S(=O)(=O)c2ccccc2[N+](=O)[O-])CC1`
*A* 123 10^-3/hr

*Q* // returns reported Kapp for input `O=C(CSc1nnc(-c2ccccc2)c(-c2ccccc2)n1)N1CCN(S(=O)(=O)c2ccc(Br)cc2)CC1`
*A* 120 10^-3/hr

* * *

Measured On: Alpha-synuclein (Homo sapiens)
Procedure Summary: Inhibition of recombinant alpha-synuclein (unknown origin) aggregation expressed in Escherichia coli BL21 (DE3) cells assessed as lag time at 1:1 compound-protein molar ratio measured for every 30 mins in presence of ThT by spectrofluorometry (reference value: 15.1 +/- 0.9 hrs)
Endpoint Label: Tlag (h)

*Q* // returns reported Tlag for input `O=C(CSc1nnc(-c2ccccc2)c(-c2ccccc2)n1)N1CCN(S(=O)(=O)c2ccc(Cl)cc2Cl)CC1`
*A* 13.9

*Q* // returns reported Tlag for input `CC(=O)Nc1ccc(S(=O)(=O)N2CCN(C(=O)CSc3nnc(-c4ccccc4)c(-c4ccccc4)n3)CC2)cc1`
*A* 14.6

*Q* // returns reported Tlag for input `O=C(CSc1nnc(-c2ccccc2)c(-c2ccccc2)n1)N1CCN(c2ccnc3cc(Cl)ccc23)CC1`
*A* 15.9

*Q* // returns reported Tlag for input `O=C(CSc1nnc(-c2ccccc2)c(-c2ccccc2)n1)N1CCN(S(=O)(=O)c2ccc(Br)cc2)CC1`
*A* 14.4

*Q* // returns reported Tlag for input `O=C(CSc1nnc(-c2ccccc2)c(-c2ccccc2)n1)N1CCN(S(=O)(=O)c2ccccc2[N+](=O)[O-])CC1`
*A* 15.3

*Q* // returns reported Tlag for input `O=C(CSc1nnc(-c2ccccc2)c(-c2ccccc2)n1)N1CCN(S(=O)(=O)c2ccc3ccccc3c2)CC1`
*A* 16.1

*Q* // returns reported Tlag for input `Cc1ccc(S(=O)(=O)N2CCN(C(=O)CSc3nnc(-c4ccccc4)c(-c4ccccc4)n3)CC2)cc1`
*A* 14.1

*Q* // returns reported Tlag for input `CC(=O)Nc1ccc(S(=O)(=O)N2CCN(C(=O)CSc3nnc(-c4ccccc4)c(-c4ccccc4)n3)CC2)cc1F`
*A* 14.9

* * *

Measured On: Alpha-synuclein (Homo sapiens)
Procedure Summary: Disruption of recombinant preformed alpha-synuclein (unknown origin) aggregation expressed in Escherichia coli BL21 (DE3) at 20 uM incubated for 5 days by ThT dye based inverted fluorescence microscopic analysis
Experimental Context: time 5.0 day
The source made the active and inactive calls. The calls are words filed in the database; no cut-off is given here.
Tick one outcome: YES = active, NO = inactive

*Q* How was `CC(=O)Nc1ccc(S(=O)(=O)N2CCN(C(=O)CSc3nnc(-c4ccccc4)c(-c4ccccc4)n3)CC2)cc1` classified in this test?
*A* YES

*Q* How was `O=C(CSc1nnc(-c2ccccc2)c(-c2ccccc2)n1)N1CCN(S(=O)(=O)c2ccc(Br)cc2)CC1` classified in this test?
*A* NO

---
*Q* How was `O=C(CSc1nnc(-c2ccccc2)c(-c2ccccc2)n1)N1CCN(c2ccnc3cc(Cl)ccc23)CC1` classified in this test?
*A* YES

*Q* How was `CC(=O)Nc1ccc(S(=O)(=O)N2CCN(C(=O)CSc3nnc(-c4ccccc4)c(-c4ccccc4)n3)CC2)cc1F` classified in this test?
*A* YES

* * *

Measured On: Alpha-synuclein (Homo sapiens)
Procedure Summary: Inhibition of recombinant alpha-synuclein (unknown origin) aggregation expressed in Escherichia coli BL21 (DE3) cells assessed as elongation phase time at 1:1 compound-protein molar ratio measured for every 30 mins in presence of ThT by spectrofluorometry (reference value: 31.2 +/- 0.6 hrs)
Experimental Context: dose 70.0 µM
Endpoint Label: T1/2 (h)

*Q* // returns reported T1/2 for input `O=C(CSc1nnc(-c2ccccc2)c(-c2ccccc2)n1)N1CCN(S(=O)(=O)c2ccc3ccccc3c2)CC1`
*A* 30

*Q* // returns reported T1/2 for input `O=C(CSc1nnc(-c2ccccc2)c(-c2ccccc2)n1)N1CCN(S(=O)(=O)c2ccccc2[N+](=O)[O-])CC1`
*A* 29.1

*Q* // returns reported T1/2 for input `CC(=O)Nc1ccc(S(=O)(=O)N2CCN(C(=O)CSc3nnc(-c4ccccc4)c(-c4ccccc4)n3)CC2)cc1`
*A* 27.5

*Q* // returns reported T1/2 for input `O=C(CSc1nnc(-c2ccccc2)c(-c2ccccc2)n1)N1CCN(S(=O)(=O)c2ccc(Br)cc2)CC1`
*A* 27

*Q* // returns reported T1/2 for input `CC(=O)Nc1ccc(S(=O)(=O)N2CCN(C(=O)CSc3nnc(-c4ccccc4)c(-c4ccccc4)n3)CC2)cc1F`
*A* 28.1

*Q* // returns reported T1/2 for input `Cc1ccc(S(=O)(=O)N2CCN(C(=O)CSc3nnc(-c4ccccc4)c(-c4ccccc4)n3)CC2)cc1`
*A* 29.4

*Q* // returns reported T1/2 for input `O=C(CSc1nnc(-c2ccccc2)c(-c2ccccc2)n1)N1CCN(c2ccnc3cc(Cl)ccc23)CC1`
*A* 28.2

*Q* // returns reported T1/2 for input `O=C(CSc1nnc(-c2ccccc2)c(-c2ccccc2)n1)N1CCN(S(=O)(=O)c2ccc(Cl)cc2Cl)CC1`
*A* 30.4

* * *

System: MEF
Procedure Summary: Cytotoxicity against mouse MEF cells at 10 uM incubated for 24 hrs in presence of aggregated alpha-synuclein by MTT assay
Type: cell-based
Endpoint Label: Activity

*Q* // returns reported Activity for input `O=C(CSc1nnc(-c2ccccc2)c(-c2ccccc2)n1)N1CCN(S(=O)(=O)c2ccc(Br)cc2)CC1`
*A* Non-Toxic

*Q* // returns reported Activity for input `O=C(CSc1nnc(-c2ccccc2)c(-c2ccccc2)n1)N1CCN(c2ccnc3cc(Cl)ccc23)CC1`
*A* Toxic

*Q* // returns reported Activity for input `CC(=O)Nc1ccc(S(=O)(=O)N2CCN(C(=O)CSc3nnc(-c4ccccc4)c(-c4ccccc4)n3)CC2)cc1`
*A* Non-Toxic

*Q* // returns reported Activity for input `CC(=O)Nc1ccc(S(=O)(=O)N2CCN(C(=O)CSc3nnc(-c4ccccc4)c(-c4ccccc4)n3)CC2)cc1F`
*A* Toxic

* * *

Procedure Summary: Solubility of the compound in sodium phosphate buffer at pH 7.4
Format: physicochemical
Endpoint Label: solubility

Use these answered entries as a reference point.
*Q* // returns reported solubility for input `O=C(CSc1nnc(-c2ccccc2)c(-c2ccccc2)n1)N1CCN(c2ccnc3cc(Cl)ccc23)CC1`
*A* Insoluble

*Q* // returns reported solubility for input `CC(=O)Nc1ccc(S(=O)(=O)N2CCN(C(=O)CSc3nnc(-c4ccccc4)c(-c4ccccc4)n3)CC2)cc1`
*A* Insoluble

*Q* // returns reported solubility for input `O=C(CSc1nnc(-c2ccccc2)c(-c2ccccc2)n1)N1CCN(S(=O)(=O)c2ccc3ccccc3c2)CC1`
*A* Insoluble

*Q* // returns reported solubility for input `O=C(CSc1nnc(-c2ccccc2)c(-c2ccccc2)n1)N1CCN(S(=O)(=O)c2ccc(Br)cc2)CC1`
*A* Insoluble

*Q* // returns reported solubility for input `O=C(CSc1nnc(-c2ccccc2)c(-c2ccccc2)n1)N1CCN(S(=O)(=O)c2ccccc2[N+](=O)[O-])CC1`
*A* Insoluble

*Q* // returns reported solubility for input `Cc1ccc(S(=O)(=O)N2CCN(C(=O)CSc3nnc(-c4ccccc4)c(-c4ccccc4)n3)CC2)cc1`
*A* Insoluble

*Q* // returns reported solubility for input `CC(=O)Nc1ccc(S(=O)(=O)N2CCN(C(=O)CSc3nnc(-c4ccccc4)c(-c4ccccc4)n3)CC2)cc1F`
*A* Insoluble

Kindly consider the entry below.
*Q* // returns reported solubility for input `O=C(CSc1nnc(-c2ccccc2)c(-c2ccccc2)n1)N1CCN(S(=O)(=O)c2ccc(Cl)cc2Cl)CC1`
*A* Insoluble
